# SYSTEM: full-length human p300 (FL-P300) (Homo sapiens)
# Construct: polyhistidine tag with TEV site (HisTev) (N); StrepII (C)
# Sequence (Q09472 whole entry): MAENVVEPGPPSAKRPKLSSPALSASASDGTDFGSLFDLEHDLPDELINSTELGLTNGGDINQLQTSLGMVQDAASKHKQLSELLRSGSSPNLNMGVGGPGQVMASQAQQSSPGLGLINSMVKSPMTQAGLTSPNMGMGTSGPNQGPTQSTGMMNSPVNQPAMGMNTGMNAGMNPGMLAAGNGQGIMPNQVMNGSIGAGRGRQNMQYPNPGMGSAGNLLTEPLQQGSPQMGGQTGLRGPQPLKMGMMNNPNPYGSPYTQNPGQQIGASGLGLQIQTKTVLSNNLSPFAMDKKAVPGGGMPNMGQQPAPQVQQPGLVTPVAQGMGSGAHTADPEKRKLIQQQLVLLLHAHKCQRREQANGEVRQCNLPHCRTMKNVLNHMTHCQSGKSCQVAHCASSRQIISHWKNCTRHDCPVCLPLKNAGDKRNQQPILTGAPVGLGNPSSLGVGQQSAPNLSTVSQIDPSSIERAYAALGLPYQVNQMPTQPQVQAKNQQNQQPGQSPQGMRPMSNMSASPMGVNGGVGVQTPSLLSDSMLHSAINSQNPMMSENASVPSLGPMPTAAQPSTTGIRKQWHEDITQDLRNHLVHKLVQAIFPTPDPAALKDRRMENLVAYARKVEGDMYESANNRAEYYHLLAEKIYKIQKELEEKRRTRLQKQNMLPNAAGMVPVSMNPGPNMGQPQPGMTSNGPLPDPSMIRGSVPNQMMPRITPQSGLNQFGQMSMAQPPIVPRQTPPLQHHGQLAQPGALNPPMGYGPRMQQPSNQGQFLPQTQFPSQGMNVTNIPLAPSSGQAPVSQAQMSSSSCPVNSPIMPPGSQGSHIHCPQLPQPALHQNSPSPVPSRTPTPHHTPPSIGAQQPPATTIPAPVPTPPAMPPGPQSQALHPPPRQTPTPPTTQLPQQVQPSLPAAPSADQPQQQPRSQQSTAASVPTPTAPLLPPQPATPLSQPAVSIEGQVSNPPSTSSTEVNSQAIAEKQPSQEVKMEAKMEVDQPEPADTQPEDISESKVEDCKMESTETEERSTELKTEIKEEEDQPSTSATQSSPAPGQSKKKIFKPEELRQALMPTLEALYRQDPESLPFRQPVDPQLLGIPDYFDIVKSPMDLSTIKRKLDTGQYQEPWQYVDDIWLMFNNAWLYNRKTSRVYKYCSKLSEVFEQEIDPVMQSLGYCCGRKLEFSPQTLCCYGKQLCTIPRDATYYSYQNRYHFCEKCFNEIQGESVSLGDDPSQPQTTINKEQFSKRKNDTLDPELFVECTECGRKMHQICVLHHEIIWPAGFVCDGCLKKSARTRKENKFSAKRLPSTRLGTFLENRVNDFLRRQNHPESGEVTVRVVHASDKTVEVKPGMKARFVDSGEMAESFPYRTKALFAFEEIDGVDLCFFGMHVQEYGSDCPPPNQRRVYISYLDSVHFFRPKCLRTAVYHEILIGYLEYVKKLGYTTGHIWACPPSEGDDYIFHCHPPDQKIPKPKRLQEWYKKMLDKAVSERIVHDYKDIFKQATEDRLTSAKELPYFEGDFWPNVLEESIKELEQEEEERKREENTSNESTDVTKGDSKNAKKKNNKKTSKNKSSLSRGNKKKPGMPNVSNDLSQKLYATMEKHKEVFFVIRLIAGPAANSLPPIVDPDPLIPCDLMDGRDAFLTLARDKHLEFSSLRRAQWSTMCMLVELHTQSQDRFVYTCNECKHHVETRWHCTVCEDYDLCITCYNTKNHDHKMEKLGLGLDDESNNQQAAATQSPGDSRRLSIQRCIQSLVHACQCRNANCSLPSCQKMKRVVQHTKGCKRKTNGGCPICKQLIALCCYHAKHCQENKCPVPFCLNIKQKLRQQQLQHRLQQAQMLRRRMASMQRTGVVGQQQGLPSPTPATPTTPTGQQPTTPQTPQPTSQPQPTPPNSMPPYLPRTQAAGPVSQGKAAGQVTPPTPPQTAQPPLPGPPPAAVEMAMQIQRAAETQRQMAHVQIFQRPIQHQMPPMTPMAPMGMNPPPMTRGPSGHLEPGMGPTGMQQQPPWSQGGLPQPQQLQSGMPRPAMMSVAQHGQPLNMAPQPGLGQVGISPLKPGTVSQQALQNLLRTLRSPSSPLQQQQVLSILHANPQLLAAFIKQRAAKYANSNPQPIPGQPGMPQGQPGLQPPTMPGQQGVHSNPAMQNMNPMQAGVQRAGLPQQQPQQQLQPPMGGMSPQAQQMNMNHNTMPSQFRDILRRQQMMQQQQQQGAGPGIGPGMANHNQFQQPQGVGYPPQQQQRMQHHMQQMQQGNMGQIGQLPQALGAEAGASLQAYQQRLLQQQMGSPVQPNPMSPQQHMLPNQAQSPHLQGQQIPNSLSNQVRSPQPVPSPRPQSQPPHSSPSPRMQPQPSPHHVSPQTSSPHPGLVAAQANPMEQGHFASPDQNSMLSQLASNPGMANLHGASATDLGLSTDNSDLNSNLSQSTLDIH
# TEST_NAME: Full-length p300 SPA
# TEST_CONDITIONS: full-length enzyme, optimized conditions
ENDPOINT_LABEL: IC50

Ask | Give its IC50 value. Item: `Cc1[nH]c2ccccc2c1-c1ncc(C(F)(F)F)cc1Cl`
Reply | > 160 µM
